meta.source: ChEMBL document CHEMBL1133391

# System: Pseudomonas aeruginosa
# assay-summary: Compound was evaluated for in vitro antibacterial activity against Pseudomonas aeruginosa 1771 M strain by agar dilution method
# Format: functional
Give MIC for every item shown.
Answers are plain numbers, in µg/mL.

Known results for compounds:
{"compound": "CC(C)[C@@H](O)C1=C(C(=O)[O-])N2C(=O)[C@H]([C@@H](C)O)C2[C@H]1C.[Na+] (stereo partly specified)", "test-value": 0.781}
{"compound": "C[C@H]1C([C@H](O)C2CC2)=C(C(=O)[O-])N2C(=O)[C@H]([C@@H](C)O)C12.[Na+] (stereo partly specified)", "test-value": 1.56}
{"compound": "C[C@H]1C([C@@H](O)C2CC2)=C(C(=O)[O-])N2C(=O)[C@H]([C@@H](C)O)C12.[Na+] (stereo partly specified)", "test-value": 3.12}

For each of the compounds below, note its MIC.
1. CC[C@H](O)C1=C(C(=O)[O-])N2C(=O)[C@H]([C@@H](C)O)C2[C@H]1C.[Na+] (stereo partly specified)
2. CC[C@@H](O)C1=C(C(=O)[O-])N2C(=O)[C@H]([C@@H](C)O)C2[C@H]1C.[Na+] (stereo partly specified)
3. C[C@H]1C([C@H](O)C2CCCC2)=C(C(=O)[O-])N2C(=O)[C@H]([C@@H](C)O)C12.[Na+] (stereo partly specified)
4. C[C@@H](O)[C@H]1C(=O)N2C(C(=O)O)=C(S[C@@H]3CN[C@H](C(=O)N(C)C)C3)[C@H](C)[C@H]12
5. CO[C@H]1CCC[C@H]2C1=C(C(=O)[O-])N1C(=O)[C@H]([C@@H](C)O)[C@@H]21.[Na+] [SANFETRINEM SODIUM]
6. CCC(C)[C@@H](O)C1=C(C(=O)[O-])N2C(=O)[C@H]([C@@H](C)O)C2[C@H]1C.[Na+] (stereo partly specified)
7. C[C@H]1C([C@H](O)C(C)(C)C)=C(C(=O)[O-])N2C(=O)[C@H]([C@@H](C)O)C12.[Na+] (stereo partly specified)

[6.25, 1.56, 0.781, 0.049, 0.391, 1.56, 6.25]

CC(C)[C@H](O)C1=C(C(=O)[O-])N2C(=O)[C@H]([C@@H](C)O)C2[C@H]1C.[Na+] (stereo partly specified) has a reported MIC of 1.56

* * *

Give MIC for every item shown.
# Tested on: Escherichia coli
# assay-summary: Compound was evaluated for in vitro antibacterial activity against Escherichia coli 1507 E strain by agar dilution method
# Assay type: functional
Numbers only, in µg/mL.

{"compound": "CO[C@H]1CCC[C@H]2C1=C(C(=O)[O-])N1C(=O)[C@H]([C@@H](C)O)[C@@H]21.[Na+] [SANFETRINEM SODIUM]", "MIC / µg/mL": 0.195}
{"compound": "C[C@@H](O)[C@H]1C(=O)N2C(C(=O)O)=C(S[C@@H]3CN[C@H](C(=O)N(C)C)C3)[C@H](C)[C@H]12", "MIC / µg/mL": 0.025}

CC[C@H](O)C1=C(C(=O)[O-])N2C(=O)[C@H]([C@@H](C)O)C2[C@H]1C.[Na+] (stereo partly drawn) has a reported MIC of 0.391

* * *

Give MIC for every item shown.
# Tested on: Escherichia coli
# assay-summary: Compound was evaluated for in vitro antibacterial activity against Escherichia coli 078 strain by agar dilution method
# Format: functional
Give bare numbers, in µg/mL.

Known results for compounds:
{"compound": "CC(C)[C@H](O)C1=C(C(=O)[O-])N2C(=O)[C@H]([C@@H](C)O)C2[C@H]1C.[Na+] (some centres not stated)", "MIC [µg/mL]": 1.56}
{"compound": "C[C@H]1C([C@@H](O)C2CC2)=C(C(=O)[O-])N2C(=O)[C@H]([C@@H](C)O)C12.[Na+] (some centres not stated)", "MIC [µg/mL]": 1.56}
{"compound": "CC[C@H](O)C1=C(C(=O)[O-])N2C(=O)[C@H]([C@@H](C)O)C2[C@H]1C.[Na+] (some centres not stated)", "MIC [µg/mL]": 0.391}
{"compound": "C[C@H]1C([C@H](O)C2CCCC2)=C(C(=O)[O-])N2C(=O)[C@H]([C@@H](C)O)C12.[Na+] (some centres not stated)", "MIC [µg/mL]": 0.195}

For each of the compounds below, note its MIC.
1. C[C@@H](O)[C@H]1C(=O)N2C(C(=O)O)=C(S[C@@H]3CN[C@H](C(=O)N(C)C)C3)[C@H](C)[C@H]12
2. CC[C@@H](O)C1=C(C(=O)[O-])N2C(=O)[C@H]([C@@H](C)O)C2[C@H]1C.[Na+] (some centres not stated)
3. CO[C@H]1CCC[C@H]2C1=C(C(=O)[O-])N1C(=O)[C@H]([C@@H](C)O)[C@@H]21.[Na+] [SANFETRINEM SODIUM]

1: 0.013; 2: 0.098; 3: 0.049
